# test-target: human MOR signaling through GαoB (Homo sapiens)
# Sequence (P35372 whole entry): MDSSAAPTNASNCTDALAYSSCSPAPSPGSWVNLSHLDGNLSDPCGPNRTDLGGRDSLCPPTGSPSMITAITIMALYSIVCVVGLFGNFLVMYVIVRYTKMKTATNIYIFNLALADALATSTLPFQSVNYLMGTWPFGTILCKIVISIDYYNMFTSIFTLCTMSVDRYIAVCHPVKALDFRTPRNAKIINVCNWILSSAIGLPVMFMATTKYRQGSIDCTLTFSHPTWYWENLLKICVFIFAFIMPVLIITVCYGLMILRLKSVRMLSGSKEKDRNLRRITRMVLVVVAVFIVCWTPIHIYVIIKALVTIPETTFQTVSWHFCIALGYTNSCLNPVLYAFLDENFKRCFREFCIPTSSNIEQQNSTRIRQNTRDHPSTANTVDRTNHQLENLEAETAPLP
# Sequence (P09471 2-354 isoform P09471-2 partner limits assumed): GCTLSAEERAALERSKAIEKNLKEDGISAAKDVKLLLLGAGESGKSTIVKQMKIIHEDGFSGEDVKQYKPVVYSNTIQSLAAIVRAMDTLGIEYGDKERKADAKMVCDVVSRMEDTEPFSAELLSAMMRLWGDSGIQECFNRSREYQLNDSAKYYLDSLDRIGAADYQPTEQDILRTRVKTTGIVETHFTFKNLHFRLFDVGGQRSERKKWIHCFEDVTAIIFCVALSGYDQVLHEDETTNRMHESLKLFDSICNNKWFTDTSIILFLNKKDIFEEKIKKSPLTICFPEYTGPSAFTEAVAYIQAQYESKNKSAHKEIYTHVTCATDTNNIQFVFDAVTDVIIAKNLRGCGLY
# condition-summary: GαoB, BMS-986122 titrated in presence of constant 10 μM 7-hydroxymitragynine; read-out: R50 (concentration of PAM which gives a half-maximal response)

[
  {
    "molecule": "COc1ccc(C2SCCN2S(=O)(=O)c2ccc(Cl)cc2)cc1Br (stereo not shown) [BMS-986122]",
    "EC50 [nM]": 670
  }
]
